Test: protein stability index of a GFP-peptide fusion (yeast GPS) (PSI 1-4); higher = more stable; sorted into four equal gates, so the index is relative within each strain
Conditions: doa10∆
Could you label it y if measured protein stability index is 3 or higher, and n otherwise?

These recorded examples may help you get a feel for the data.
[
  {
    "ITEM SEQUENCE": "IVLIKGISSAYIKSATL [SNU114]",
    "ASSIGNED LABEL": "n"
  },
  {
    "ITEM SEQUENCE": "KTITLEVESSDTIDNVK [RPS31]",
    "ASSIGNED LABEL": "n"
  },
  {
    "ITEM SEQUENCE": "PVKVSGTIKKIEQFAMR [POP5]",
    "ASSIGNED LABEL": "n"
  },
  {
    "ITEM SEQUENCE": "RDCIDISIFSTPGSVSL [PRP8]",
    "ASSIGNED LABEL": "n"
  },
  {
    "ITEM SEQUENCE": "ANLGKYGILSIDDLIHE [RPL7A]",
    "ASSIGNED LABEL": "n"
  }
]

For this sequence, is measured protein stability index 3 or higher? KFMELERKTLERQQENL [SWI3]
n

For this sequence, is measured protein stability index 3 or higher? PKAVVDHINGSGKRKPT [GAL11]
n

For this sequence, is measured protein stability index 3 or higher? NDAMAGGFTAYGGADYG [RPO21]
n

For this sequence, is measured protein stability index 3 or higher? LSGNSVEDVSQNAADLQ [RPL9A]
y

For this sequence, is measured protein stability index 3 or higher? VSTKTNEYRLAFYQVTP [RPL22A]
n

For this sequence, is measured protein stability index 3 or higher? NWLSIFNDFSNIKTSEW [REC8]
n
